Record form. Attribute: pKd. Fill in for each entry.
assayed.system: T1, Rat serum albumin (rat, UniProt P02770 25-608)
T1 construct: coupled to CM5 BIAcore chip; also called rat SA; RSA
experimental.details: SPR, BIAcore 3000, serum albumin coupled to CM5 chip;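 further: Cross-reactivity of anti-serum albumin domain antibodies measured against human, cynomolgus monkey, rat and mouse serum albumin, binding kinetics giving Kd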
Lab note: report pKd as minus log10 of the concentration in molar units, number only.

// lookup pKd for DOM7r-36-101 (VHH, VH immunoglobulin single variable domain (dAb, AlbudAb), not a camelid VHH; tested with a myc tag; not shown: myc tag) VHH: EVQLLESGGGLVQPGGSLRLSCAASGFTFNHYTMGWVRQAPGKGREWVSLIHPSGTVTYYADSVKGRFTISRDNSKNTLYLQMNSLRAEDTAVYYCAKWFLKSFDYWGQGTLVTVSS
6.74

Reported pKd, binder DOM7r-31-103 (VHH, VH immunoglobulin single variable domain (dAb, AlbudAb), not a camelid VHH; tested with a myc tag; not shown: myc tag) VHH: EVQLLESGGGLVQPGGSLRLSCTASGFTFRHYRMGWVRQAPGKGLEWVSWIRPDGTFTYYADSVKGRFTISRDNSKNTLYLQMNSLRAEDAAVYYCAKSYMSGTFDYWGQGTLVTVSS : ____
7.40

Quick one: pKd of DOM7r-92-102 (VHH, VH immunoglobulin single variable domain (dAb, AlbudAb), not a camelid VHH; tested with a myc tag; not shown: myc tag) VHH: EVQLLESGGGLVQPGGSLRLSCAASGFTFDTSSMLWVRQAPGKGLEWVSVIHQSGTPTYYADSVKGRFTISRDNSKNTLYLQMNSLRAEDTAVYYCAKFPSSQFRFDYWGQGTLVTVSS ?
7.00

For the binder shown here, DOM7r-36-105 (VHH, VH immunoglobulin single variable domain (dAb, AlbudAb), not a camelid VHH; tested with a myc tag; not shown: myc tag) VHH: EVQLLESGGGLVQPGGSLRLSCAASGFTFNHYTMGWVRQAPGKGREWVSLIHPSGTVTYYADSVKGRFTISRDNSKNTLYLQMNSLRAEDTAVYYCAKLGTKVFDYWGQGTLVTVSS , give the reported pKd.
6.77
